Recorded pest or weed control at 31 g/ha by entry
- System: barnyardgrass (Echinochloa crus-galli)
- EXPERIMENT: Test A preemergence
- Assay type: in vivo
- EXPERIMENTAL SETUP: Echinochloa crus-galli, pre-emergence, 240 h, 31 g ai/ha, Preemergence; 0 to 100 scale where 0 is no effect and 100 is complete control; read-out: Barnyardgrass plant response rating
Only the number, expressed in %, is required.

Record excerpt, results attached:
| SMILES REPRESENTATION | TARGET SYSTEM | MEASURE NAME | EXPERIMENTAL VALUE |
| --- | --- | --- | --- |
| CSc1ccccc1NC(=O)[C@H]1C(=O)N(C)C[C@@H]1c1cc(C(F)F)cs1 | barnyardgrass (Echinochloa crus-galli) | pest or weed control at 31 g/ha | 0 |
| CN1C[C@H](c2cccc(C(F)(F)F)c2)[C@@H](C(=O)Nc2ccccc2-n2cccn2)C1=O | barnyardgrass (Echinochloa crus-galli) | pest or weed control at 31 g/ha | 0 |
| CN1C[C@H](c2ccc(F)c(Oc3ccccc3)c2)[C@@H](C(=O)Nc2ccccc2F)C1=O | barnyardgrass (Echinochloa crus-galli) | pest or weed control at 31 g/ha | 30 |
| CN1C[C@H](c2csc3c2CCC3)[C@@H](C(=O)Nc2ccccc2S(C)(=O)=O)C1=O | barnyardgrass (Echinochloa crus-galli) | pest or weed control at 31 g/ha | 0 |
| Cc1c(F)cccc1NC(=O)[C@H]1C(=O)N(C)C[C@@H]1c1ccc2c(c1)C(F)(F)C(F)(F)O2 | barnyardgrass (Echinochloa crus-galli) | pest or weed control at 31 g/ha | 90 |

// below: pest or weed control at 31 g/ha requested for another compound
Form field: reported pest or weed control at 31 g/ha of Cc1cc([C@H]2CN(C)C(=O)[C@@H]2C(=O)Nc2ccccc2C(F)(F)F)ccc1Br
20

---

- Test system: Kochia (Kochia scoparia)
- EXPERIMENT: Test A preemergence
- Format: in vivo
- EXPERIMENTAL SETUP: Bassia scoparia, pre-emergence, 240 h, 125 g ai/ha, preemergence; 0 to 100 scale where 0 is no effect and 100 is complete control; read-out: Kochia plant response rating
MEASURE NAME: pest or weed control at 125 g/ha
Number first, unit second.

Record excerpt, results attached:
| COMPOUND | pest or weed control at 125 g/ha |
| --- | --- |
| COc1ccc(CN2CC[C@H](c3ccc(F)cc3)[C@@H](C(=O)Nc3cccc(F)c3F)C2=O)cc1 [Compound 919] | 0% |
| CN1C[C@H](c2cccc(COC(F)F)c2)[C@@H](C(=O)Nc2ccccc2S(C)(=O)=O)C1=O [Compound 877] | 60% |

// below: pest or weed control at 125 g/ha requested for another compound
Form field: reported pest or weed control at 125 g/ha of Cc1c(F)ccc([C@H]2CN(C)C(=O)[C@@H]2C(=O)Nc2ccccc2S(C)(=O)=O)c1F [Compound 842]
80%

---

- System: Kochia (Kochia scoparia)
- EXPERIMENT: Test A preemergence
- Format: in vivo
- EXPERIMENTAL SETUP: Preemergence, 500 g ai/ha, visual injury approx. 10 d
MEASURE NAME: Kochia plant response rating (0 to 100 scale, 0 is no effect, 100 is complete control)

| COMPOUND | TARGET SYSTEM | EXPERIMENTAL VALUE |
| --- | --- | --- |
| C#CCN1CC(c2cccc(C(F)(F)F)c2)C(C(=O)Nc2ccccc2F)C1=O (centres unmarked) | Kochia (Kochia scoparia) | 0 |
| CC(=O)Oc1cccc(C2CNC(=O)C2C(=O)Nc2cccc(F)c2F)c1 (centres unmarked) | Kochia (Kochia scoparia) | 0 |
| CN1CC(c2cccc(OC(F)(F)C(F)F)c2)C(C(=O)Nc2ccccc2C(F)(F)F)C1=O (centres unmarked) | Kochia (Kochia scoparia) | 70 |
| C=C(C)CN1CC(c2cccc(C(F)(F)F)c2)C(C(=O)Nc2cccc(F)c2F)C1=O (centres unmarked) | Kochia (Kochia scoparia) | 0 |

// below: Kochia plant response rating (0 to 100 scale, 0 is no effect, 100 is complete control) requested for another compound
Recall the recorded Kochia plant response rating (0 to 100 scale, 0 is no effect, 100 is complete control) for O=C1NCC(c2ccc(C(F)(F)F)c(F)c2)C1C(=O)Nc1ccccc1F (racemic) with Kochia (Kochia scoparia) and state it.
70
